study.system: T1, B-cat-Halo (UniProt P35222 1-781)
T1 sequence (looked up): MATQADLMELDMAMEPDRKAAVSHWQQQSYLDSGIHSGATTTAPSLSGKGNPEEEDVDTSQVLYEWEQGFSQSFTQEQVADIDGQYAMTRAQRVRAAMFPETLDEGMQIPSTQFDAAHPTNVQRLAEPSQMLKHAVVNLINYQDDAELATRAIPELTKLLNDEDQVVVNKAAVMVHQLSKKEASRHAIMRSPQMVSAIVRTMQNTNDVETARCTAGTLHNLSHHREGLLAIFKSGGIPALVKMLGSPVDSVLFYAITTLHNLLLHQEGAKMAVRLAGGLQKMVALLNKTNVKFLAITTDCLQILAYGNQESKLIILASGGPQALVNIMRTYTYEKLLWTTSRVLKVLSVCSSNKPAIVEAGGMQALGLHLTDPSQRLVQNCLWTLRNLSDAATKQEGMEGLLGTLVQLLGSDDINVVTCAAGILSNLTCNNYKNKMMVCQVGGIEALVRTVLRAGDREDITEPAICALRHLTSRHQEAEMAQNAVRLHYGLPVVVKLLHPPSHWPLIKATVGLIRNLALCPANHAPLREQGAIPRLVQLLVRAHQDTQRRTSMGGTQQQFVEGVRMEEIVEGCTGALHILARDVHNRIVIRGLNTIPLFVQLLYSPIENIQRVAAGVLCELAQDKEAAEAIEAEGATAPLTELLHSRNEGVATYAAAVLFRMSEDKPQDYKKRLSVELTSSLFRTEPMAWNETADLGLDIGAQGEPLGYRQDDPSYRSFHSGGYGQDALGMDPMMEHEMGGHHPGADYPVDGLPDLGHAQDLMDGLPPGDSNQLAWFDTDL
test.protocol: cell-based or functional assay
Starred links: 1 amine or outer side, 2 acyl side, 3 side chain; linkers in the order of their positions; H or OH if unused. Positions of bridges follow the written chain, without caps; N, C: chain ends. Non-standard residues stand in square brackets, D forms with d. Primed or numbered codes have the meaning given here. PyrS2″ = (S)-3-amino-1-((pent-4-en-1-yloxy)carbonyl)pyrrolidine-3-carboxylic acid (stapling residue), C=CCCCOC(=O)N1CC[C@@](N[*:1])(C(=O)[*:2])C1; PyrS2 = (S)-3-amino-1-((pent-4-en-1-yloxy)carbonyl)pyrrolidine-3-carboxylic acid, C=CCCCOC(=O)N1CC[C@@](N[*:1])(C(=O)[*:2])C1; (Pic)GA = (S)-2-amino-3-(N-(carboxymethyl)picolinamido)propanoic acid, O=C(c1ccccn1)N(CC(=O)[*:3])C[C@H](N[*:1])C(=O)[*:2]; B5(22) = 2-amino-2-(pent-4-en-1-yl)hept-6-enoic acid (two alkene side chains), C=CCCCC(CCCC=C)(N[*:1])C(=O)[*:2]; B5(3) = 2,2-bis(4-pentenyl)glycine (stitching residue), C=CCCCC(CCCC=C)(N[*:1])C(=O)[*:2]; Phe(3-COOH) = N[C@@H](Cc1cccc(C(=O)O)c1)C(=O)O; 2F3MeF = Cc1cccc(C[C@H](N[*:1])C(=O)[*:2])c1F; Phe(3-Cl) = N[C@@H](Cc1cccc(Cl)c1)C(=O)O; Phe(4-Cl) = N[C@@H](Cc1ccc(Cl)cc1)C(=O)O; Bta = N[C@@H](Cc1csc2ccccc12)C(=O)O; αAllylPro = C=CC[C@@]1(C(=O)O)CCCN1; tBuAla = CC(C)(C)C[C@H](N)C(=O)O; 3Thi = N[C@@H](Cc1ccsc1)C(=O)O; PyrS2(4) = not defined here
NanoBRET Abs IC50 for assorted binders
Kindly provide the numeric value in µM only, without the unit symbol.

# annotated cases, reported NanoBRET Abs IC50 shown
binder	NanoBRET Abs IC50 / µM
Ac-[αAllylPro]D[tBuAla][B5(3)]D[Phe(3-COOH)]AAFL[PyrS2″][2F3MeF][Phe(3-Cl)]S-NH2 (staple 1-4, 4-11) [I-2226]	10.6
Ac-[αAllylPro]D[tBuAla][B5(22)]D[(Pic)GA]AAFL[PyrS2][3Thi][Bta]Q-NH2 (staple 1-4, 4-11) [I-2237]	24.3
Ac-[αAllylPro]D[tBuAla][B5(3)]D[Phe(3-COOH)]AAFL[PyrS2″][2F3MeF][Phe(4-Cl)]S-NH2 (staple 1-4, 4-11) [I-2222]	11.7
Ac-[αAllylPro]D[tBuAla][B5(3)]D[(PfBz)GA]AAFL[PyrS2(4)][3Thi][Bta]Q-NH2 (staple 1-4, 4-11; reading uncertain) [I-2242]	21.4
Ac-[αAllylPro]D[tBuAla][B5(3)]D[Phe(3-COOH)]QAFL[PyrS2″][2F3MeF][Phe(4-Cl)]A-NH2 (staple 1-4, 4-11) [I-2223]	9

API: the following record is the query input.
Ask: Form field: reported NanoBRET Abs IC50 of Ac-[αAllylPro]D[tBuAla][B5(3)]D[Phe(3-COOH)]AAFL[PyrS2″][3Thi][Phe(3-Cl)]Q-NH2 (staple 1-4, 4-11) [I-2224]
Reply: 14.2
